target: chemokine receptor 5 (CCR5) (human, UniProt P51681 1-352); assay: cell-based or functional assay
Sequence (P51681 whole entry): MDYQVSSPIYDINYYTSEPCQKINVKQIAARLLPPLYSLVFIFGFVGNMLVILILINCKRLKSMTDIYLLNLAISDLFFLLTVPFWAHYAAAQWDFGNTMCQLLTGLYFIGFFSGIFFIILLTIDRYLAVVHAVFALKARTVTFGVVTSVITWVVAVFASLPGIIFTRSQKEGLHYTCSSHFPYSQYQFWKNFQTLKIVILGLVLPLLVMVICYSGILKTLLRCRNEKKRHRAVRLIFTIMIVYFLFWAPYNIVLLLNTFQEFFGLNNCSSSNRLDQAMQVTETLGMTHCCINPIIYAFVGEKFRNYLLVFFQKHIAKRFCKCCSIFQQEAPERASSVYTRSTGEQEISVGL
*: point of attachment. Nonanoyl = CCCCCCCCC(=O)*
Measure: EC50 (read off the curve)

Could you please provide reported EC50 (read off the curve) for NNY-HCC-1[10-74] (nonanoyl-HCC-1[10-74]) (ligand, ends and bridges not checked, Chemokine compound analog, synthetic) Nonanoyl-PYHPSECCFTYTTYKIPRQRIMDYYETNSQCSKPGIVFITKRGHSVCTNPSDKWVQDYIKDMKEN ? Thanks! ~1 nM

Give EC50 (read off the curve) for the following binder: RANTES (ligand, UniProt P13501 24-91, looked up, ends and bridges not checked; also: 125I-labelled where used as tracer, unlabelled in functional assays) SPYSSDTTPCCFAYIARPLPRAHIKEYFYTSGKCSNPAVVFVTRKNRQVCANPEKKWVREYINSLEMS ~10 nM

Determine its reported EC50 (read off the curve): HCC-1[10-74] (ligand, Synthetic, oxidatively folded) PYHPSECCFTYTTYKIPRQRIMDYYETNSQCSKPGIVFITKRGHSVCTNPSDKWVQDYIKDMKEN ~6 nM

Entry processed human chemokine PHC-1 (HCC-1[9-74]) (ligand, Purified from human hemofiltrate or made by tryptic digestion of HCC-1 (1-74)) GPYHPSECCFTYTTYKIPRQRIMDYYETNSQCSKPGIVFITKRGHSVCTNPSDKWVQDYIKDMKEN needs its EC50 (read off the curve) filled in; supply it. ~7 nM
